// reported Mean Pe per item
- Experiment: PAMPA permeability, heart total lipid extract (HTLE) membrane
- Condition Info: Heart total lipid extract membrane, n=3; * = not detected at acceptor side, value calculated from limit of detection

Compound	Mean Pe
NC(N)=Nc1nc(CSCCC(N)=NS(N)(=O)=O)cs1 [famotidine]	< 0,33* 10-6 cm/s

q: Kindly indicate its recorded Mean Pe. Item: CCOC(=O)[C@H](CCc1ccccc1)N[C@@H](C)C(=O)N1[C@H](C(=O)O)C[C@@H]2CCC[C@@H]21 [ramipril]
a: < 0,87* 10-6 cm/s

q: Kindly indicate its recorded Mean Pe. Item: CCn1cc(C(=O)O)c(=O)c2cc(F)c(N3CCNCC3)cc21 [norfloxacin]
a: < 0,54* 10-6 cm/s

q: Kindly indicate its recorded Mean Pe. Item: N=C(N)c1ccc(OCCCOc2ccc(C(=N)N)cc2)cc1 [propamidine]
a: < 0,76* 10-6 cm/s

q: Kindly indicate its recorded Mean Pe. Item: CC(C)c1nc(N(C)S(C)(=O)=O)nc(-c2ccc(F)cc2)c1/C=C/[C@@H](O)C[C@@H](O)CC(=O)O [rosuvastatin]
a: < 0,48* 10-6 cm/s
